method.summary: pKa from pH-dependence of differential extinction coefficient (UV)
Type: physicochemical
assay.context: 263 nm
assay.endpoint: pKa
No unit in the answer, please; the number alone is enough.

Q: Give the measured pKa for OC[C@H]1O[C@@H](n2cnc3c(O)ncnc32)[C@H](O)[C@@H]1O
A: 8.72

* * *

method.summary: pKa from pH-dependence of fluorescence
Assay type: physicochemical
assay.context: 50 mM buffer series, pH 5.00-9.50, Ex/Em 292/360
From the text: Calibration of fluorescence signal for the 8-aza-A to 8-aza-I reaction—This procedure is very similar to the one described under “Differential Extinction Coefficients (Δε) for Deaminase Reaction”. […] The loss of fluorescence (Em=360 nm) from 8-azaadenosine standard solutions (Ex=282/292 nm) where recorded with a Spectramax M5 plate reader until no change in signal could be observed. […]
assay.endpoint: pKa

Q: Give the measured pKa for OC[C@H]1O[C@@H](n2nnc3c(O)ncnc32)[C@H](O)[C@@H]1O
A: 7.54
